- SUBJECT OF TEST: vanilloid receptor 1 (VR1/TRPV1 receptor) (Homo sapiens, UniProt Q8NER1)
- ASSAY REMARKS: FLIPR functional assay (Ca2+ influx, capsaicin) on the vanilloid receptor 1
- Assay type: cell-based
- TEST PARAMETERS: functional (f), capsaicin (Cap) stimulus, Ki from IC50 by Cheng-Prusoff, read-out: (f) Ki (human being) [nM] Cap
MEASURED PROPERTY: Ki (nM)

Some solved cases for reference:
COMPOUND: CC1CCN(c2nc(C(F)(F)F)ccc2CNC(=O)C(C)c2ccc(CNS(C)(=O)=O)c(F)c2)CC1 (stereo not shown) [Example 30]
Ki (nM): 8
--
COMPOUND: CC1CCN(c2cc(C(F)(F)F)ccc2CNC(=O)C(C)c2ccc(CNS(C)(=O)=O)c(F)c2)CC1 (stereo not shown) [Example 29]
Ki (nM): 5

a. CC1CCN(c2nc(C(F)(F)F)ccc2CNC(=O)Nc2ccc(CNS(N)(=O)=O)c(F)c2)CC1 [Example 61]
b. NS(=O)(=O)NCc1ccc(NC(=O)NCc2ccc(C(F)(F)F)nc2N2CCCC2)cc1F [Example 60]
QUERY: Form field 'greater Ki' accepts a or b ; which applies? Mark your selection by writing its label.
RESULT: b
(b: 20 nM, a: 1 nM)
